- measured on: PAR4 (Homo sapiens (Human))
- measurement notes: FLIPR assay in PAR4-expressing HEK293 cells (PAR4 antagonist activity)
- recorded conditions: inhibition of H-Ala-Phe(4-F)-Pro-Gly-Trp-Leu-Val-Lys-Asn-Gly-NH2-induced intracellular calcium mobilization
Heads up, the class ranges for EC50 are 1 = under 2 nM, 2 = from 2 nM up to 3 nM, 3 = 3 nM and over

Some solved entries appear below for comparison.
Inquiry: Would you mind sorting COc1cc(OCc2cccc(NC(=O)c3ccccc3OC(C)=O)c2)c2cc(-c3cn4nc(OC)sc4n3)oc2c1 into the appropriate category?
Reply text: 1

Inquiry: Lab note: sort COc1cc(OCc2cccc3c2CCN3C(=O)c2ccnnc2)c2cc(-c3cn4nc(OC)sc4n3)oc2c1 into the matching EC50 band.
Reply text: 3

Inquiry: Returns: class label. Input: COc1cc(OCc2cccc(NC(=O)c3ccc(F)c(F)c3)c2)c2cc(-c3cn4nc(OC)sc4n3)oc2c1
Reply text: 2

Inquiry: Bin? COc1cc(OCc2cccc(N(C)C(=O)c3ccc(OC)nc3)c2)c2cc(-c3cn4nc(OC)sc4n3)oc2c1
Reply text: 1

Inquiry: Exam item: assign COc1cc(OCc2cccc(NC(=O)c3cccc(Cl)c3F)c2)c2cc(-c3cn4nc(OC)sc4n3)oc2c1 to the correct category.
Reply text: 3

Inquiry: Which bin should I file COc1cc(OCc2cccc3c2CCN3C(=O)c2ccccc2)c2cc(-c3cn4nc(OC)sc4n3)oc2c1 under?
Reply text: 3

Inquiry: Assign a bin to COc1cc(OCc2cccc(NC(=O)c3cnc(-c4ccccc4)nc3C)c2)c2cc(-c3cn4nc(OC)sc4n3)oc2c1
Reply text: 3

Inquiry: Which class holds COc1cc(OCc2cccc(NC(=O)c3ccc(Cl)cc3)c2)c2cc(-c3cn4nc(OC)sc4n3)oc2c1 ?
Reply text: 1

---
Inquiry: # bin lookup: classify COc1cc(OCc2cccc(NC(=O)c3cccn3C)c2)c2cc(-c3cn4nc(OC)sc4n3)oc2c1 by its EC50
Reply text: 3

Inquiry: Bin this entry: COc1cc(OCc2cccc(N(C)C=O)c2)c2cc(-c3cn4nc(OC)sc4n3)oc2c1
Reply text: 2

Inquiry: Which EC50 category applies to COc1cc(OC(F)F)cc(C(=O)Nc2cccc(COc3cc(OC)cc4oc(-c5cn6nc(OC)sc6n5)cc34)c2)c1 here?
Reply text: 2

Inquiry: # classify by EC50 band: COc1cc(OCc2cccc(NC(=O)c3ccc(F)c(F)c3F)c2)c2cc(-c3cn4nc(OC)sc4n3)oc2c1
Reply text: 1

Inquiry: Classify this compound: COc1cc(OCc2cccc(NC(=O)c3ccccc3C(F)(F)F)c2)c2cc(-c3cn4nc(OC)sc4n3)oc2c1
Reply text: 1

Inquiry: Class label required: COc1cc(OCc2cccc3c2CCN3C(=O)c2cccc(F)c2)c2cc(-c3cn4nc(OC)sc4n3)oc2c1
Reply text: 3

Inquiry: Assign a bin to COc1cc(OCc2cccc(NC(=O)c3ccc(OC)c(C(F)(F)F)c3)c2)c2cc(-c3cn4nc(OC)sc4n3)oc2c1
Reply text: 2

====

- measured on: PAR4 (Homo sapiens (Human))
- measurement notes: FLIPR assay in PAR4-expressing HEK293 cells (PAR4 antagonist activity)
- recorded conditions: inhibition of H-Ala-Phe(4-F)-Pro-Gly-Trp-Leu-Val-Lys-Asn-Gly-NH2-induced intracellular calcium mobilization
// classify(record): look up EC50 in ranges Low: < 2 nM; Mid: ≥ 2 nM and < 4 nM; High: ≥ 4 nM

# example entries with known answers
Inquiry: For the record COc1cc(OCc2cccc3c2CCN3C(=O)c2csc(C(F)(F)F)n2)c2cc(-c3cn4nc(OC)sc4n3)oc2c1 , report the class its EC50 corresponds to.
Reply text: High

Inquiry: Which EC50 category applies to COc1cc(OCc2cccc3c2CCN3C(=O)c2sc(C)nc2C)c2cc(-c3cn4nc(OC)sc4n3)oc2c1 here?
Reply text: High

Inquiry: Hi, small favor: classify COc1cc(OCc2cccc(NC(=O)c3c(F)cccc3C(F)(F)F)c2)c2cc(-c3cn4nc(OC)sc4n3)oc2c1 by its EC50 when you get a moment.
Reply text: Low

Inquiry: In plain terms, what class is COc1cc(OCc2cccc(NC(=O)c3cn4nc(C(C)(F)F)sc4n3)c2)c2cc(-c3cn4nc(OC)sc4n3)oc2c1 ?
Reply text: High

---
Inquiry: For COc1cc(OCc2cccc(NC(=O)c3cc(C(F)(F)F)ccc3F)c2)c2cc(-c3cn4nc(OC)sc4n3)oc2c1 , which EC50 bin applies?
Reply text: Low

====

- measured on: PAR4 (Homo sapiens (Human))
- measurement notes: FLIPR assay in PAR4-expressing HEK293 cells (PAR4 antagonist activity)
- recorded conditions: inhibition of H-Ala-Phe(4-F)-Pro-Gly-Trp-Leu-Val-Lys-Asn-Gly-NH2-induced intracellular calcium mobilization
quantity name: pEC50
// pEC50: -log10(molar conc.)

Reference set (2 entries):
Inquiry: Record request: pEC50 value, item COc1cc(OCc2cccc(NC(=O)c3cc(C)cc(C(F)(F)F)c3)c2)c2cc(-c3cn4nc(OC)sc4n3)oc2c1 [Example 71]
Reply text: 8.72

Inquiry: Sample COc1cc(OCc2cccc(NC(=O)c3ccc4c(c3)OCO4)c2)c2cc(-c3cn4nc(OC)sc4n3)oc2c1 [Example 22] — what was its pEC50?
Reply text: 8.96

---
Inquiry: // returns reported pEC50 for input COc1nn2cc(-c3cc4c(OCc5cccc(NC(=O)c6ccccc6)c5)cccc4o3)nc2s1 [Example 52]
Reply text: 9.39

Inquiry: Find the recorded pEC50 belonging to COc1cc(OCc2cccc(NC(=O)c3cccnc3F)c2)c2cc(-c3cn4nc(OC)sc4n3)oc2c1 [Example 61] and report it.
Reply text: 8.82

Inquiry: Which value of pEC50 has been reported for COc1cc(OCc2cccc(NC(=O)c3c(Cl)cccc3Cl)c2)c2cc(-c3cn4nc(OC)sc4n3)oc2c1 [Example 12] in the records?
Reply text: 8.82

Inquiry: For the molecule shown here, COc1cc(OCc2cccc(NC(=O)c3cncnc3)c2)c2cc(-c3cn4nc(OC)sc4n3)oc2c1 [Example 57] , give the reported pEC50.
Reply text: 8.74

Inquiry: # lookup: pEC50 of COc1cc(OCc2cccc(NC(=O)COc3ccccc3)c2)c2cc(-c3cn4nc(OC)sc4n3)oc2c1 [Example 35]
Reply text: 9.00

====

- measured on: PAR4 (Homo sapiens (Human), UniProt Q96RI0)
- Sequence (Q96RI0 18-385): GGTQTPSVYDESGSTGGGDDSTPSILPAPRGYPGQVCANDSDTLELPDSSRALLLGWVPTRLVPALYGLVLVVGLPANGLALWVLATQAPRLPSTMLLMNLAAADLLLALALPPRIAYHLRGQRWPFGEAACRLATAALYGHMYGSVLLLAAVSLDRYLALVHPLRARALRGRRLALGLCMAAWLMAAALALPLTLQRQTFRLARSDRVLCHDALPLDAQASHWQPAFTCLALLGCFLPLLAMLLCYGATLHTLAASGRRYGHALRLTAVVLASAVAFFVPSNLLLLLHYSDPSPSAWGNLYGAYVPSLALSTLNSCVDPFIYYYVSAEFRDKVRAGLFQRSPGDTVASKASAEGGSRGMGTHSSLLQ
- measurement notes: FLIPR assay in PAR4-expressing HEK293 cells (PAR4 antagonist activity)
- recorded conditions: inhibition of H-Ala-Phe(4-F)-Pro-Gly-Trp-Leu-Val-Lys-Asn-Gly-NH2-induced intracellular calcium mobilization
Lab note: anything with EC50 below 2 nM is marked T; values at 2 nM or higher are marked F.

Inquiry: Is the reported EC50 for COc1cc(OCc2cccc(NC(=O)c3cc(F)ccc3F)c2)c2cc(-c3cn4nc(OC)sc4n3)oc2c1 strictly below 2 nM?
Reply text: F

Continuing:
Inquiry: Criterion: EC50 strictly below 2 nM. Is it met by COc1cc(OCc2cccc3c2CCN3C(=O)c2csc(-c3ccccc3)n2)c2cc(-c3cn4nc(OC)sc4n3)oc2c1 ?
Reply text: F

Inquiry: A record lists COc1ccc(C(=O)Nc2cccc(COc3cc(OC)cc4oc(-c5cn6nc(OC)sc6n5)cc34)c2)c(OC)c1 . Is its EC50 below 2 nM?
Reply text: F

====

- measured on: PAR1 (Homo sapiens (Human), UniProt P25116)
- Sequence (P25116 22-425): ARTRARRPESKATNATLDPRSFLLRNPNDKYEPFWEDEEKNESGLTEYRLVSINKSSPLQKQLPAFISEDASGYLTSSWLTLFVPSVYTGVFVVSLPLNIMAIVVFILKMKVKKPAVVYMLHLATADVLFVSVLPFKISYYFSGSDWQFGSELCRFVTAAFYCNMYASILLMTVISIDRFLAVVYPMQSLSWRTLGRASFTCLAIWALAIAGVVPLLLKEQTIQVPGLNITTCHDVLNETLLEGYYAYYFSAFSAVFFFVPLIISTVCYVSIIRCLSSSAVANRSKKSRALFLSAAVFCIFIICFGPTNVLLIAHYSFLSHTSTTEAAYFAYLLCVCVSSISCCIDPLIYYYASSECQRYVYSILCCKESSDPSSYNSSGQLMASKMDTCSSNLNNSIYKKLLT
- measurement notes: FLIPR assay, PAR1 agonist peptide response in PAR1/PAR4-expressing HEK293 cells
- Type: cell-based
- recorded conditions: routine test of agonist response, FLIPR assay of Example A
pEC50: −log10 of the molar value. No end group written: not given here.
quantity name: pEC50

Inquiry: What measured pEC50 goes with SFFLRR [SFFLRR] ?
Reply text: ~5.70

====

- measured on: UniProt:Q96RI0
- measurement notes: FLIPR assay in PAR4-expressing HEK293 cells (PAR4 antagonist activity)
- recorded conditions: inhibition of H-Ala-Phe(4-F)-Pro-Gly-Trp-Leu-Val-Lys-Asn-Gly-NH2-induced intracellular calcium mobilization
quantity name: EC50 (nM)
// note: answer is a bare numeric in nM

Inquiry: Look up EC50 for this molecule: COc1cc(OCc2cccc(NC(=O)c3ccco3)c2)c2cc(-c3cn4nc(OC)sc4n3)oc2c1
Reply text: 5

Inquiry: Form field: reported EC50 of COc1cc(OCc2cccc(NC(=O)c3ccc([N+](=O)[O-])cc3)c2)c2cc(-c3cn4nc(OC)sc4n3)oc2c1
Reply text: 1.8

Inquiry: Quick one: EC50 of COc1cc(OCc2cccc(NC(=O)c3ccc(C(C)(C)C)cc3)c2)c2cc(-c3cn4nc(OC)sc4n3)oc2c1 ?
Reply text: 2.5

Inquiry: What value of EC50 has been recorded for this entry: COc1cc(OCc2cccc3c2CCN3C(=O)c2cc(C)cc(C(F)(F)F)c2)c2cc(-c3cn4nc(OC)sc4n3)oc2c1
Reply text: 3.9

Inquiry: Param item = COc1cc(OCc2cccc(NC(=O)c3ccno3)c2)c2cc(-c3cn4nc(OC)sc4n3)oc2c1 ; retrieve measured EC50.
Reply text: 2.3

New cases:
Inquiry: Requested field: EC50. Item: COc1cc(OCc2cccc(NC(=O)c3c(C)noc3C)c2)c2cc(-c3cn4nc(OC)sc4n3)oc2c1
Reply text: 2.8

Inquiry: Fill in: EC50 of COc1cc(OCc2cccc3c2CCN3C(=O)c2ccccc2F)c2cc(-c3cn4nc(OC)sc4n3)oc2c1 is ___
Reply text: 4.2

Inquiry: Need EC50, item COc1cc(OCc2cccc(NC(=O)c3ccnc(O)c3)c2)c2cc(-c3cn4nc(OC)sc4n3)oc2c1
Reply text: 5.5

Inquiry: Give its EC50 value. Item: COc1cc(OCc2cccc(NC(=O)c3ccc(F)cc3)c2)c2cc(-c3cn4nc(OC)sc4n3)oc2c1
Reply text: 1

Inquiry: If you can, please state the reported EC50 value of COc1cc(OCc2cccc(N)c2)c2cc(-c3cn4nc(OC)sc4n3)oc2c1 .
Reply text: 17

Inquiry: // lookup EC50 for COc1cc(OCc2cccc(NS(=O)(=O)c3ccccc3)c2)c2cc(-c3cn4nc(OC)sc4n3)oc2c1
Reply text: 10

Inquiry: Data request, read-out EC50, for COc1cc(OCc2cccc(NC(=O)c3cccc(-c4ccccc4)c3)c2)c2cc(-c3cn4nc(OC)sc4n3)oc2c1
Reply text: 12

Inquiry: # get_value(readout='EC50', item= COc1cc(OCc2cccc(N(C)C(=O)c3ccc(C)cc3)c2)c2cc(-c3cn4nc(OC)sc4n3)oc2c1 )
Reply text: 3.5
